# Method: Phase 1 open-label study: coadministration of combined oral contraceptive (EE+LNG) with elagolix sodium, pharmacokinetics, safety and tolerability
# Format: in vivo, human
# Condition Details: female, human, in vivo, oral, Study Day 18: EE/LNG 0.02 mg/0.1 mg + elagolix 200 mg; read-out: AUCt, Central Value Test
Parameter: AUC(0-t) (ng·h/mL)
Record the value in ng·h/mL, omitting the unit from your answer.

C#C[C@]1(O)CC[C@H]2[C@@H]3CCC4=CC(=O)CC[C@@H]4[C@H]3CC[C@@]21CC    25

Please turn your attention to the following entry.
Query :: Given `C#C[C@]1(O)CC[C@H]2[C@@H]3CCc4cc(O)ccc4[C@H]3CC[C@@]21C` , state its recorded AUC(0-t).
Result :: 0.941
